assay_info: Transport of PTF constituents across Caco-2 cell monolayers (LC-MS quantification)
Format: in vitro ADME, human
Parameters: dose or concentration left out as unconfirmed
protocol_conditions: human, Caco-2; 180 min; read-out: PDR (ratio of P app BL→AP to P app AP→BL)
quantity_name: efflux ratio at 180 min
When you answer, write just the number.

// returns reported efflux ratio at 180 min for input O=C(O[C@@H]1O[C@@H]2COC(=O)c3cc(O)c(O)c(O)c3-c3c(cc(O)c(O)c3O)C(=O)O[C@H]([C@H]1O)[C@@H]2O)c1cc(O)c(O)c(O)c1
12.5

// returns reported efflux ratio at 180 min for input O=c1oc2c(O)c(O)cc3c(=O)oc4c(O)c(O)cc1c4c23
1.31

// returns reported efflux ratio at 180 min for input O=C(O)c1cc(O)c(O)c(O)c1
4.17

====

Kindly supply the reported Papp B→A at 180 min values for the records listed here.
assay_info: Transport of PTF constituents across Caco-2 cell monolayers (LC-MS quantification)
Type: in vitro ADME, human
protocol_conditions: human, Caco-2; compound in PTF 1.00 mg/mL, 180 min, mean ± SEM (n = 3)
Record the result as number plus unit.

// returns reported Papp B→A at 180 min for input O=C(O)c1cc(O)c(O)c(O)c1
0.1 ×10⁻⁶ cm/s

// returns reported Papp B→A at 180 min for input O=c1oc2c(O)c(O)cc3c(=O)oc4c(O)c(O)cc1c4c23
0.456 ×10⁻⁶ cm/s

// returns reported Papp B→A at 180 min for input O=C(O[C@@H]1O[C@@H]2COC(=O)c3cc(O)c(O)c(O)c3-c3c(cc(O)c(O)c3O)C(=O)O[C@H]([C@H]1O)[C@@H]2O)c1cc(O)c(O)c(O)c1
2.18 ×10⁻⁶ cm/s

====

assay_info: Transport of PTF constituents across Caco-2 cell monolayers (LC-MS quantification)
Assay type: in vitro ADME, human
protocol_conditions: human, Caco-2; compound in PTF 1.00 mg/mL, 180 min, mean ± SEM (n = 3)
quantity_name: Papp A→B at 180 min, 1 mg/mL (×10⁻⁶ cm/s)
Field: numeric (×10⁻⁶ cm/s). Do not append units.

// returns reported Papp A→B at 180 min, 1 mg/mL for input O=C(O[C@@H]1O[C@@H]2COC(=O)c3cc(O)c(O)c(O)c3-c3c(cc(O)c(O)c3O)C(=O)O[C@H]([C@H]1O)[C@@H]2O)c1cc(O)c(O)c(O)c1 [Corilagin]
0.174

====

assay_info: Transport of PTF constituents across Caco-2 cell monolayers (LC-MS quantification)
Format: in vitro ADME, human
Parameters: dose or concentration left out as unconfirmed
protocol_conditions: human, Caco-2; 180 min, mean ± SEM (n = 3)
quantity_name: Papp A→B at 180 min (nm/s)
Field: numeric (nm/s). Do not append units.

// returns reported Papp A→B at 180 min for input O=C(O)c1cc(O)c(O)c(O)c1
0.24

// returns reported Papp A→B at 180 min for input O=c1oc2c(O)c(O)cc3c(=O)oc4c(O)c(O)cc1c4c23
3.47
